test system: pulmonary fibrosis; test: Pulmonary toxicity (pulmonary fibrosis) in mice; details: ICR mice, 5 mg/kg i.p. once a day for 10 days; points 0, 1, 2, 4, 6
measurement-label: Grade: Total score of pulmonary fibrosis/total number of samples (%)
Dear colleague, please return just the value in %, with no unit written.

Sample records with Grade: Total score of pulmonary fibrosis/total number of samples (%):
Cc1c(N)nc(C(CC(N)=O)NCC(N)C(=O)NCCCNC(C)c2ccccc2)nc1C(=O)NC(C(=O)NC(C)C(O)C(C)C(=O)NC(C(=O)NCCc1nc(-c2nc(C(=O)NCCCN(C)CCCNCCc3ccc(Cl)cc3)cs2)cs1)C(C)O)C(OC1OC(CO)C(O)C(O)C1OC1OC(CO)C(O)C(OC(N)=O)C1O)c1cnc[nH]1 (stereo not drawn): 0
Cc1c(N)nc(C(CC(N)=O)NCC(N)C(=O)NC(C)C)nc1C(=O)NC(C(=O)NC(C)C(O)C(C)C(=O)NC(C(=O)NCCc1nc(-c2nc(C(=O)NCCCNC(C)c3ccccc3)cs2)cs1)C(C)O)C(OC1OC(CO)C(O)C(O)C1OC1OC(CO)C(O)C(OC(N)=O)C1O)c1cnc[nH]1 (stereo not drawn): 21

input: Let me know recorded Grade: Total score of pulmonary fibrosis/total number of samples (%) for CCCCCCCCNC(=O)C(N)CNC(CC(N)=O)c1nc(N)c(C)c(C(=O)NC(C(=O)NC(C)C(O)C(C)C(=O)NC(C(=O)NCCc2nc(-c3nc(C(=O)NCCCN(C)CCCN(Cc4ccc(OCc5ccccc5)c(OCc5ccccc5)c4)Cc4ccc(OCc5ccccc5)c(OCc5ccccc5)c4)cs3)cs2)C(C)O)C(OC2OC(CO)C(O)C(O)C2OC2OC(CO)C(O)C(OC(N)=O)C2O)c2cnc[nH]2)n1 (stereo not drawn) , thanks.
output: 0

input: Quote Grade: Total score of pulmonary fibrosis/total number of samples (%) reported for CCCCCCCCNC(=O)C(N)CNC(CC(N)=O)c1nc(N)c(C)c(C(=O)NC(C(=O)NC(C)C(O)C(C)C(=O)NC(C(=O)NCCc2nc(-c3nc(C(=O)NCCCN(C)CCCNCC4CCCCCCC4)cs3)cs2)C(C)O)C(OC2OC(CO)C(O)C(O)C2OC2OC(CO)C(O)C(OC(N)=O)C2O)c2cnc[nH]2)n1 (stereo not drawn) please.
output: 0

input: Return the recorded Grade: Total score of pulmonary fibrosis/total number of samples (%) value; entry: Cc1c(N)nc(C(CC(N)=O)NCC(N)C(=O)NCCCNC(C)c2ccccc2)nc1C(=O)NC(C(=O)NC(C)C(O)C(C)C(=O)NC(C(=O)NCCc1nc(-c2nc(C(=O)NCCC[N+](C)(CCCN(Cc3ccccc3)Cc3ccccc3)Cc3ccccc3)cs2)cs1)C(C)O)C(OC1OC(CO)C(O)C(O)C1OC1OC(CO)C(O)C(OC(N)=O)C1O)c1cnc[nH]1 (stereo not drawn)
output: 0

input: Query Grade: Total score of pulmonary fibrosis/total number of samples (%) for Cc1c(N)nc(C(CC(N)=O)NCC(N)C(=O)NCCCNC(C)c2ccccc2)nc1C(=O)NC(C(=O)NC(C)C(O)C(C)C(=O)NC(C(=O)NCCc1nc(-c2nc(C(=O)NCCCN(C)CCCNCc3ccc(Cl)cc3)cs2)cs1)C(C)O)C(OC1OC(CO)C(O)C(O)C1OC1OC(CO)C(O)C(OC(N)=O)C1O)c1cnc[nH]1 (stereo not drawn)
output: 7
